Listing: MFC of selected compounds
- System: Aspergillus versicolor
- Method description: Fungicidal activity against Aspergillus versicolor ATCC 11730 by microdilution method
- Type: functional

| Compound | MFC |
| --- | --- |
| CC(=O)c1c(O)c(C)c(O)c2c1OC1=CC(=O)/C(=C(/C)NCCc3nc(C)no3)C(=O)[C@@]12C | 3.73 ×10⁻² mmol/ml |
| COc1ccc2nc(NC(=O)CN/C(C)=C3\C(=O)C=C4Oc5c(C(C)=O)c(O)c(C)c(O)c5[C@@]4(C)C3=O)sc2c1 | 7.1 ×10⁻² mmol/ml |
| CC(=O)c1c(O)c(C)c(O)c2c1OC1=CC(=O)/C(=C(/C)NCC(=O)Nc3nccs3)C(=O)[C@@]12C | 3.72 ×10⁻² mmol/ml |
| CC(=O)c1c(O)c(C)c(O)c2c1OC1=CC(=O)/C(=C(/C)NCCc3nnc(-c4ccccc4O)o3)C(=O)[C@@]12C | 3.01 ×10⁻² mmol/ml |
| CC(=O)NCCN/C(C)=C1\C(=O)C=C2Oc3c(C(C)=O)c(O)c(C)c(O)c3[C@@]2(C)C1=O | 7.53 ×10⁻² mmol/ml |
| CC(=O)c1c(O)c(C)c(O)c2c1OC1=CC(=O)/C(=C(/C)NCCS(N)(=O)=O)C(=O)[C@@]12C | 7.1 ×10⁻² mmol/ml |
| CC(=O)c1c(O)c(C)c(O)c2c1OC1=CC(=O)/C(=C(/C)NCc3noc(C4CCC(=O)N4)n3)C(=O)[C@@]12C (stereo partly drawn) | 3.54 ×10⁻² mmol/ml |
| CC(=O)c1c(O)c(C)c(O)c2c1OC1=CC(=O)/C(=C(/C)NCCn3c(=O)c(O)nc4ccccc43)C(=O)[C@@]12C | 3.64 ×10⁻² mmol/ml |
